This listing pairs compounds with measured DC50.
Target: Androgen Receptor (AR) (Homo sapiens, UniProt P10275, T878A)
Construct: cell based immuno-fluorescence assay using the LNCaP prostate epithelial cell line; endogenous in cells; host or cells: LNCaP clone FGC (ATCC CRL-1740)
Experiment: LNCaP Androgen Receptor Down-regulation Cell Assay (immunofluorescence end point)
Assay type: cell-based
Details: LNCaP prostate carcinoma cells, compound incubation 20-22 hours, 50% reduction of the AR signal; read-out: Androgen Receptor Down-regulation Assay (a) IC50/μM
// note: answer is a bare numeric in µM

INPUT: Value lookup for DC50; key = FC(F)(F)COCC1CCN(c2ccc3nnc(C(F)(F)F)n3n2)CC1
OUTPUT: 1.8

INPUT: Value lookup for DC50; key = Fc1cccc(OC2CCN(c3ccc4nnc(C(F)F)n4n3)CC2)c1
OUTPUT: 0.91

INPUT: Value lookup for DC50; key = FC(F)(F)c1nnc2ccc(N3CCC(c4ccc(OCc5ccon5)cc4)CC3)nn12
OUTPUT: 0.6

====

Biological target: Androgen Receptor (AR) (Homo sapiens, UniProt P10275, T878A)
Construct: cell based immuno-fluorescence assay using the LNCaP prostate epithelial cell line; endogenous in cells; host or cells: LNCaP clone FGC (ATCC CRL-1740)
Sequence (P10275 1-920 T878A): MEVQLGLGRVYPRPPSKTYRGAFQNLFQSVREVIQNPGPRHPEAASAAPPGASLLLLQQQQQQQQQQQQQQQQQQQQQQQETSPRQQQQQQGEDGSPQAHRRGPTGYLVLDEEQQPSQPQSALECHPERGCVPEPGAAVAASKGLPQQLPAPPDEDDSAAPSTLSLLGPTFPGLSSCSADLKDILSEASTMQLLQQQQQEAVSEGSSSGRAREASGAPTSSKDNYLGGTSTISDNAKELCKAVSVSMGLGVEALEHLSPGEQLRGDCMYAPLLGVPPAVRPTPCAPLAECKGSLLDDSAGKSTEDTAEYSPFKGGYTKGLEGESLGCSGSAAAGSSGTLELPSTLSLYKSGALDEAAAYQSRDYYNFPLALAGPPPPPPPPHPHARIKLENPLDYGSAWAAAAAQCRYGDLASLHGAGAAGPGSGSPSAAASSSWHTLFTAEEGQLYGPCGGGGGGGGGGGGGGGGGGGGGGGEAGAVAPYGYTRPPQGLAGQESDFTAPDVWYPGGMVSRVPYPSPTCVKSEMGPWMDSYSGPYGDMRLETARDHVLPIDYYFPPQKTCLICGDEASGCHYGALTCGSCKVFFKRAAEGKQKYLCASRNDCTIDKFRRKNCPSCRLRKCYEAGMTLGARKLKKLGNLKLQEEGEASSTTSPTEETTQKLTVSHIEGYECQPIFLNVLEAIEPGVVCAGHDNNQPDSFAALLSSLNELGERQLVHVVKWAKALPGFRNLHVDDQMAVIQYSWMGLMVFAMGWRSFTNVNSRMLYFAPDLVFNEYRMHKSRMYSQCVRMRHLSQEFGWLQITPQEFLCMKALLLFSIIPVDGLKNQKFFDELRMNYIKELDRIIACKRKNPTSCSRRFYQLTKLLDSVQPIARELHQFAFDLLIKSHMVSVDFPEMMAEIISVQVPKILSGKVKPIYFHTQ
Test: LNCaP Androgen Receptor Down-regulation Cell Assay (immunofluorescence end point)
Format: cell-based
Conditions: LNCaP prostate carcinoma cells, compound incubation 20-22 hours, 50% reduction of the AR signal; read-out: Androgen Receptor Down-regulation Assay (a) IC50/μM
resultType: log10 DC50 (log10 of the value in µM)
Please interpret these as log10 of DC50 where DC50 is in µM.

- compound: "FC(F)(Cl)c1nnc2ccc(N3CCN(Cc4cccs4)CC3)nn12"
  experimentalTarget: "Androgen Receptor (AR) (Homo sapiens, UniProt P10275, T878A)"
  resultType: "log10 DC50"
  recordedMeasurement: 0.34
- compound: "Fc1ccc(Oc2ccc(CN3CCN(c4ccc5nnc(C(F)(F)F)n5n4)CC3)cc2)cc1"
  experimentalTarget: "Androgen Receptor (AR) (Homo sapiens, UniProt P10275, T878A)"
  resultType: "log10 DC50"
  recordedMeasurement: 0.30
- compound: "FC(F)(F)c1ccc(CN2CCN(c3ccc4nnc(C(F)(F)F)n4c3)CC2)cc1"
  experimentalTarget: "Androgen Receptor (AR) (Homo sapiens, UniProt P10275, T878A)"
  resultType: "log10 DC50"
  recordedMeasurement: 0.45
- compound: "FC(F)(F)c1nnc2ccc(N3CCN(Cc4ccc(Cl)nc4)CC3)nn12"
  experimentalTarget: "Androgen Receptor (AR) (Homo sapiens, UniProt P10275, T878A)"
  resultType: "log10 DC50"
  recordedMeasurement: 0.18
- compound: "N#Cc1ccc2[nH]cc(CN3CCN(c4ccc5nnc(C(F)(F)F)n5n4)CC3)c2c1"
  experimentalTarget: "Androgen Receptor (AR) (Homo sapiens, UniProt P10275, T878A)"
  resultType: "log10 DC50"
  recordedMeasurement: -0.19

INPUT: Value lookup for log10 DC50; key = FC(F)(F)c1nnc2ccc(N3CCN(Cc4ccc(N5CCOCC5)nc4)CC3)nn12
OUTPUT: 0.94

INPUT: Value lookup for log10 DC50; key = COc1cccc(C2CCN(c3ccc4nnc(C(F)(F)F)n4n3)CC2)c1
OUTPUT: 0.40
